target: WEE1 (Homo sapiens); construct: purchased Thermo Fisher PR7373A; assay: Selectivity versus WEE1 assay (ADP-Glo enzymatic assay); type: biochemical; conditions: fold difference in selectivity for PKMYT1 over WEE1; banded
MEASURED_QUANTITY: PKMYT1 vs. WEE1 selectivity

COMPOUND | PKMYT1 vs. WEE1 selectivity
Cc1ccc(O)c(C)c1NC(=O)c1nnc(Nc2ccn(C3CCC3)n2)s1 [BAA-466] | Y (1000-5000 fold)
Cc1ccc(O)c(C)c1NC(=O)c1cnc(Nc2cc(N3CCN(C)CC3)ncn2)s1 [BAA-581] | W (10-<100 fold)
Cc1cn(CC2CCOC2)nc1Nc1ncc(C(=O)Nc2c(C)ccc(O)c2C)s1 (stereo not drawn) [BAA-543] | W (10-<100 fold)
Cc1ccc(O)c(C)c1NC(=O)c1cnc(Nc2ncnc3[nH]ccc23)s1 [BAA-441] | W (10-<100 fold)
C#Cc1cccc(Nc2ncc(C(=O)Nc3c(C)ccc(O)c3C)s2)n1 [BAA-431] | X (100-<1000 fold)

**Query** Annotate the compound Cc1cc(C)c(NC(=O)c2cnc(Nc3ccn(CC(=O)N4CCCC4)n3)s2)c(C)c1O [BAA-516] with its measured PKMYT1 vs. WEE1 selectivity.
**Result** X (100-<1000 fold)

**Query** Identify the reported PKMYT1 vs. WEE1 selectivity for the following entry. Cc1ccc(O)c(C)c1NC(=O)c1cnc(Nc2cccc(C3=NCCO3)c2)s1 [BAA-461]
**Result** X (100-<1000 fold)

**Query** Give the reported value of PKMYT1 vs. WEE1 selectivity for this record: CCn1cc(C#N)c(Nc2ncc(C(=O)Nc3c(C)ccc(O)c3C)s2)n1 [BAA-573]
**Result** Y (1000-5000 fold)

###

Biological target: Human PKMYT1 (Homo sapiens, UniProt Q99640)
Construct: Human PKMYT1 75-362 was cloned as a TEV cleavable 6xHis fusion; 6xHis (TEV cleavable) (cleaved yes); made in house; host or cells: bacterial cells
Sequence (Q99640 75-362): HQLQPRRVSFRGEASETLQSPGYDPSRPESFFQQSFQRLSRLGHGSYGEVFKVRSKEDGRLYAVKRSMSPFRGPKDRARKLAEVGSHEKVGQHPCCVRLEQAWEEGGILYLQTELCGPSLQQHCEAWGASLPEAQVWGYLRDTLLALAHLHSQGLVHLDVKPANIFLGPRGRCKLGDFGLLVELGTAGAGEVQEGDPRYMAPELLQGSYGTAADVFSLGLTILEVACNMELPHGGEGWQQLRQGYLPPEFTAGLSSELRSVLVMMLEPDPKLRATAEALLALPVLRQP
Assay: PKMYT1 biochemical ADP-Glo enzymatic assay
Details: ADP-Glo; 15 nM PKMYT1 kinase domain, 500 µM ATP, 60 minutes at 26° C.; banded
Experimental: Human PKMYT1 75-362 was cloned as a TEV cleavable 6xHis fusion in bacterial cells. After purification on a Ni++HiTrap Chelating HP column, the His-tag was cleaved using TEV protease. […] PKMYT1 biochemical assay: Inhibition of PKMYT1 was assessed using the ADP-Glo™ Max Detection System from Promega. […] Inhibition of PKMYT1 by small molecule inhibitors results in a retardation of luminescence above background. The intrinsic ATPase activity of PKMYT1 was assessed according to the following protocol. […]
pIC50: −log10 of the molar value.
Attribute: pIC50

Completed entries (count: 5):
MOLECULE | pIC50
Cc1ccc(O)c(C)c1NC(=O)c1cnc(Nc2ccn(CC(=O)NC3CCN(C(=O)OC(C)(C)C)CC3)n2)s1 | > 7.30
Cc1ccc(O)c(C)c1NC(=O)c1cnc(NC2CC2)s1 | 6.00 to 7.30
Cc1ccc(O)c(C)c1NC(=O)c1cnc(Nc2ccn(CC(=O)NC3CCNCC3)n2)s1 | > 7.30
CCOC(=O)c1cn(C)nc1Nc1ncc(C(=O)Nc2c(C)ccc(O)c2C)s1 | 6.00 to 7.30
CC(=O)N1CCN(C(=O)Cn2ccc(Nc3ncc(C(=O)Nc4c(C)ccc(O)c4C)s3)n2)CC1 | > 7.30

**Query** Determine from records and report pIC50 for Cc1ccc(O)c(C)c1NC(=O)c1cnc(Nc2ccn(CC(=O)N3CCCCC3)n2)s1
**Result** > 7.30

**Query** Give the measured pIC50 for Cc1ccc(O)c(C)c1NC(=O)c1cnc(Nc2cc(C)n(CC(=O)O)n2)s1
**Result** > 7.30

**Query** Return reported pIC50. Input molecule: Cc1ccc(O)c(C)c1NC(=O)c1cnc(Nc2ccn([C@@H]3CCN(C(=O)C(C)C)C3)n2)s1
**Result** 6.00 to 7.30

**Query** Provide pIC50 value for the following molecule: Cc1ccc(O)c(C)c1NC(=O)c1cnc(Nc2ccn(CC(=O)N3C[C@@H](C)N[C@@H](C)C3)n2)s1
**Result** > 7.30

**Query** Entry Cc1cn(-c2cccc(F)c2)nc1Nc1ncc(C(=O)Nc2c(C)ccc(O)c2C)s1 needs its pIC50 filled in; supply it.
**Result** > 7.30

**Query** Return value of pIC50 for input Cc1ccc(O)c(C)c1NC(=O)c1cnc(Nc2nc(NC(=O)C(C)(C)C)ccc2Cl)s1.Cl [BAA-333, hydrochloride] , no commentary.
**Result** 6.00 to 7.30

**Query** # return recorded pIC50 for entry Cc1ccc(O)c(C)c1NC(=O)c1cnc(Nc2ccc(NC(=O)CC(C)C)cn2)s1
**Result** > 7.30

###

Catalogue of pIC50 values
target: Human PKMYT1 (Homo sapiens); construct: Human PKMYT1 75-362 was cloned as a TEV cleavable 6xHis fusion; 6xHis (TEV cleavable) (cleaved yes); made in house; host or cells: bacterial cells; assay: PKMYT1 biochemical ADP-Glo enzymatic assay; settings: ADP-Glo; 15 nM PKMYT1 kinase domain, 500 µM ATP, 60 minutes at 26° C.; banded
pIC50: −log10 of the molar value.

Solved cases below.
COMPOUND | pIC50
CCCCn1ccc(Nc2ncc(C(=O)Nc3c(C)ccc(O)c3C)s2)n1 [BAA-012] | 6.00 to 7.30
Cc1ccc(O)c(C)c1NC(=O)c1cnc(N[C@H]2CCN(C(=O)OC(C)(C)C)C2)s1 [BAA-049] | 4.96 to 6.00
Cc1ccc(O)c(C)c1NC(=O)c1cnc(Nc2ccn(CC(=O)NCC(C)(C)O)n2)s1 [BAA-146] | > 7.30
Cc1ccc(O)c(C)c1NC(=O)c1cnc(Nc2ccc3cc(Br)cnc3n2)s1 [BAA-298] | 6.00 to 7.30
Cc1ccc(O)c(C)c1NC(=O)c1cnc(NCC2CCN(C(=O)CC(C)(C)O)CC2)s1 [BAA-215] | 6.00 to 7.30
Cc1cc(Nc2ncc(C(=O)Nc3c(C)ccc(O)c3C)s2)n(CCC(N)=O)n1 [BAA-240] | 6.00 to 7.30
Cc1ccc(O)c(C)c1NC(=O)c1sc(Nc2ccn(C)n2)nc1N [BAA-219] | 4.96 to 6.00
Cc1ccc(O)c(C)c1NC(=O)c1cnc(Nc2cccc(-c3cnn(C)c3)n2)s1 [BAA-390] | > 7.30
COCCNC(=O)Cn1ccc(Nc2ncc(C(=O)Nc3c(C)ccc(O)c3C)s2)n1 [BAA-166] | > 7.30
Cc1ccc(O)c(C)c1NC(=O)c1cnc(Nc2ccn(CC(=O)NCC3CCNCC3)n2)s1 [BAA-226] | > 7.30

**Query** Quote pIC50 reported for Cc1cc(Nc2ncc(C(=O)Nc3c(C)ccc(O)c3C)s2)nc(-c2ccc(F)cc2)n1 [BAA-307] please.
**Result** 6.00 to 7.30

###

Biological target: WEE1 (Homo sapiens, UniProt P30291)
Construct: purchased Thermo Fisher PR7373A
Sequence (P30291 whole entry): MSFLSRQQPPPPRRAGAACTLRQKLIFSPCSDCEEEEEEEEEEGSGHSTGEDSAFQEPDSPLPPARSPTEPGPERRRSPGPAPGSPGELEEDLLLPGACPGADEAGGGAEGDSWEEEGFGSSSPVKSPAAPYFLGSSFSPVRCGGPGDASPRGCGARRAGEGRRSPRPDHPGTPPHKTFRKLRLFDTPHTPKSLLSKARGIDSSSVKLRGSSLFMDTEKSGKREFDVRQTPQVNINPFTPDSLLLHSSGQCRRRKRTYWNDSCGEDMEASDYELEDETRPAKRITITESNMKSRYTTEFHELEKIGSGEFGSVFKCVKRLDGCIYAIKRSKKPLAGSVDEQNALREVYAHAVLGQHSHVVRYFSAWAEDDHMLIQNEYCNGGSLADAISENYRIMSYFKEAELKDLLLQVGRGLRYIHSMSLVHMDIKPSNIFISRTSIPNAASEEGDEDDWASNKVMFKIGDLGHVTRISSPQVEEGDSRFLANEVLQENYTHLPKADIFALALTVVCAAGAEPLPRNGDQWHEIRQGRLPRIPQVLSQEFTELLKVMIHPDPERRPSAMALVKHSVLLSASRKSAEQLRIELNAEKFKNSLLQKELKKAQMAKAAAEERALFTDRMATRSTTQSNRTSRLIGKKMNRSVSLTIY
Experiment: Selectivity versus WEE1 assay (ADP-Glo enzymatic assay)
Type: biochemical
Settings: fold difference in selectivity for PKMYT1 over WEE1; banded; ">N" = at least in this band but could be higher
Method: Selectivity versus WEE1 assay: Selectivity was established using the same format as outlined for PKMYT1. […] After 60 minutes the luminescence signal was read on a PHERAStar FS microplate reader (BMG Labtech). Data analysis: Data was captured and analysed within the Dotmatics Studies software module where dose response curves were generated and IC50 values determined. […]
MEASURED_QUANTITY: PKMYT1 vs. WEE1 selectivity

Recorded PKMYT1 vs. WEE1 selectivity, per entry:
STRUCTURE_STRING | STUDY_SYSTEM | PKMYT1 vs. WEE1 selectivity
Cc1ccc(NC(=O)C2CCOCC2)nc1Nc1ncc(C(=O)Nc2c(C)ccc(O)c2C)s1.Cl | WEE1 (Homo sapiens, UniProt P30291) | Y (1000-5000 fold)
Cc1ccc(O)c(C)c1NC(=O)c1cnc(Nc2ccc3cc(F)ccc3n2)s1 | WEE1 (Homo sapiens, UniProt P30291) | X (100-<1000 fold)
Cc1ccc(O)c(C)c1NC(=O)c1cnc(NCc2cn[nH]c2)s1 | WEE1 (Homo sapiens, UniProt P30291) | Y (1000-5000 fold)
COc1ccccc1CNc1ncc(C(=O)Nc2c(C)ccc(O)c2C)s1 | WEE1 (Homo sapiens, UniProt P30291) | X (100-<1000 fold)
Cc1ccc(O)c(C)c1NC(=O)c1cnc(NCc2ccn(C)n2)s1 | WEE1 (Homo sapiens, UniProt P30291) | X (100-<1000 fold)
Cc1ccc(O)c(C)c1NC(=O)c1cnc(NCCCN2CCN(C(=O)OC(C)(C)C)CC2)s1 | WEE1 (Homo sapiens, UniProt P30291) | >X (100-<1000 fold)
Cc1ccc(O)c(C)c1NC(=O)c1cnc(Nc2cc(C)n(CCC(=O)O)n2)s1 | WEE1 (Homo sapiens, UniProt P30291) | X (100-<1000 fold)

# evaluate next
**Query** Quote PKMYT1 vs. WEE1 selectivity reported for Cc1ccc(O)c(C)c1NC(=O)c1cnc(Nc2cc(C(F)(F)F)n(C)n2)s1 please.
**Result** >X (100-<1000 fold)
